Measured values drawn from patent US20230139680A1 for this set.

Target: T1, HDAC8 (UniProt Q9BY41 1-377)
T1 construct: Expressed in E. coli BL21(DE3) CodonPlus, purified on Ni-NTA and Q Sepharose; also called HAC8; histone deacetylase 8; not shown: C-terminal TEV site and His6 tag by the plasmid's name (pHD4-HDAC8-TEV-His6)
T1 sequence (looked up): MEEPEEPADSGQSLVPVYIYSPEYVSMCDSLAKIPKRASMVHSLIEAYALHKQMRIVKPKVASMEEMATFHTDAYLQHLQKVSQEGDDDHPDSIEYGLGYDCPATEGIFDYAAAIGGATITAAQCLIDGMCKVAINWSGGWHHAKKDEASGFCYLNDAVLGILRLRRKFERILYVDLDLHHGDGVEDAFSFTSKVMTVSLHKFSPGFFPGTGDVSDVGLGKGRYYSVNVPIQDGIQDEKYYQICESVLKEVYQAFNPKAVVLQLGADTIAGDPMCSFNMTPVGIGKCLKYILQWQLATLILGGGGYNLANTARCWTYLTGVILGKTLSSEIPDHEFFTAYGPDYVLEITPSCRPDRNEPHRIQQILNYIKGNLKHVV
Assay: fluorescence polarization, 25 nM 5-FAM peptide, protein titrated
Starred links: 1 amine or outer side, 2 acyl side, 3 side chain; linkers in the order of their positions; H or OH if unused. Positions of bridges follow the written chain, without caps; N, C: chain ends. Non-standard residues stand in square brackets, D forms with d. No end group written: not given here. *: point of attachment. AcrK = N6-acryloyl-L-lysine, C=CC(=O)NCCCC[C@H](N[*:1])C(=O)[*:2]; 5FAM = O=C1OC2(c3ccc(O)cc3Oc3cc(O)ccc32)c2ccc(C(=O)*)cc21
reportedEndpoint: pKd
Lab note: report pKd as minus log10 of the concentration in molar units, number only.

Data request: For CQSLWMN[AcrK]K(5FAM)-NH2 (bridge 1-8; not fully specified (bridges), also called 5FAM-CycH8a; 5FAM-cycH8a) [5-FAM-conjugated CycH8a] , what is its reported pKd?
Data returned: 5.15
